biological target: Calmodulin-1 (Homo sapiens); assay: calcium-bound CALM1 binders on microarrays, profiling panel, artefact control for SMM control-protein annotation, biochemical, small-molecule microarray, Cy5-labelled CALM1, plus calcium (AID 1112); conditions: Cy5-CALM1 binding fluorescence, higher = more signal;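 also: score merges spot fluorescence with signal to noise from triplicate slides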
Label class 1 for high-side composite z-score (at or above -0.1) and class 0 for low-side composite z-score (below it).

Is reported composite z-score greater than or equal to -0.1 here: CCCCCCc1nc(C2CC2)cc2c1[Si](C(C)C)(C(C)C)O[C@H]2c1ccccc1 class 0

Is reported composite z-score greater than or equal to -0.1 here: C=CC[C@@]1(C(=O)N2CCOCC2)N=C(c2ccc(OCCCO)cc2)O[C@@H]1c1ccccc1CN=[N+]=[N-] class 1

Is reported composite z-score greater than or equal to -0.1 here: CO[C@H]1O[C@H](CO)[C@@H](OC(=O)Nc2ccc3c(c2)OCO3)[C@H](OC(=O)c2cc3ccccc3[nH]2)[C@H]1OC(=O)c1cc2ccccc2[nH]1 class 0

Is reported composite z-score greater than or equal to -0.1 here: CC1=C([C@H](O)CCc2ccccc2)[C@H](CO)[C@@H]2C(=O)N(C)C(=O)[C@@H]2C1 class 0

Is reported composite z-score greater than or equal to -0.1 here: CN(C)c1ccc(C(O)C2C=CC3C(=O)N(c4ccccc4)C(=O)C3N2Nc2ccc([N+](=O)[O-])cc2)cc1 (stereo not given) class 0

Is reported composite z-score greater than or equal to -0.1 here: CC(C)N1C(=O)c2ccccc2[C@@H](C(=O)NC2CC2)[C@@H]1c1ccc(CO)cc1 class 1

Is reported composite z-score greater than or equal to -0.1 here: CCOC(=O)C[C@H]1[C@H](OC(=O)c2ccccc2-c2ccccc2)[C@@H](NC(=O)c2ccc(-c3ccccc3)cc2)c2cc(OCCCO)ccc2N1C(=O)c1ccc2ccccc2n1 class 1

Is reported composite z-score greater than or equal to -0.1 here: CN1C(=O)C2C=CC(C(O)c3ccc(F)cc3)N(Nc3ccccc3)C2C1=O (stereo not given) class 1

Is reported composite z-score greater than or equal to -0.1 here: COc1cc2c(cc1OC)CN(C(=O)[C@@H]1[C@H]3C(=O)O[C@H](c4ccccc4)[C@H](c4ccccc4)N3[C@H](c3ccc(OCCO)cc3)[C@@]13C(=O)Nc1ccc(C#CC4(O)CCCCCC4)cc13)CC2 class 0

Is reported composite z-score greater than or equal to -0.1 here: COc1ccc([Si](C)(C)[C@H]2[C@H](CC(=O)N(CCO)Cc3ccccc3)O[C@@]3(C(=O)N(Cc4cccc(N5CCOC5=O)c4)c4ccccc43)[C@@H]2C)cc1 class 0

Is reported composite z-score greater than or equal to -0.1 here: CN(C)C(=O)C1N=C(c2ccc(OCCCO)cc2)N(c2ccccc2)O1 (stereo not given) class 1

Is reported composite z-score greater than or equal to -0.1 here: COc1ccc([Si](C)(C)[C@@H]2[C@@H](CC(=O)N(CCO)Cc3ccccc3)O[C@]3(C(=O)N(Cc4cccc(N5CCOC5=O)c4)c4ccccc43)[C@H]2C)cc1 class 0

Is reported composite z-score greater than or equal to -0.1 here: CCOC(=O)C1=CC[C@@H](c2cccc(Cl)c2)N(S(=O)(=O)c2ccc(C)cc2)C1 class 1

Is reported composite z-score greater than or equal to -0.1 here: COC(=O)c1c(CC[C@@H](CO)NC(=O)N[C@H](Cn2cc(C3(O)CCCCC3)nn2)C(C)C)oc(C(C)=O)c1C(=O)OC class 0

Is reported composite z-score greater than or equal to -0.1 here: CN(C)CCCCNC(=O)[C@@H]1C[C@@H]2C(=O)N[C@@H](Cc3ccccc3)C(=O)N2[C@@H]1c1cccc(OCCO)c1 class 0
